Origin of measurements: PubChem BioAssay (NCI)

protocol-summary: NCI Yeast Anticancer Drug Screen. Data for the rad50 strain (AID 155);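 note: 0% = growth of vehicle-only cultures of the same strain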
condition-details: S. cerevisiae rad50 strain growth inhibition; at 11.0 µM; hits give high values
This is part of a sample that, as a whole, favours compounds with a hit. Of some 79,000 tested, about 15% had one in any assay.
measurement-name: growth inhibition (%)
The reply should be a number in %, with the unit left off.

These recorded examples may help you get a feel for the data.
{"columns": ["molecule", "u", "endpoint-result"],
 "data": [
  ["CCCCCC/C(C)=N/Nc1ccc([N+](=O)[O-])cc1[N+](=O)[O-]", "%", -18],
  ["CSc1ccc2c(c1)C(N1CCN(C)CC1)Cc1ccccc1S2 (stereo unspecified)", "%", -25],
  ["CCN(CC)c1cccc(Nc2nc3ccccc3s2)c1", "%", 5],
  ["Cc1ccc2oc(-c3cccc(N)c3)nc2c1", "%", 1]
]}

Q. Given BrC/C=C/C[P+](c1ccccc1)(c1ccccc1)c1ccccc1 , state its recorded growth inhibition.
A. 93

Q. Would you mind doing CCCC(=O)OC(OC(=O)CCC)c1ccc([N+](=O)[O-])o1 as well?
A. 10

Q. Would you mind doing COc1ccc(/C(=N/O)c2ccccc2C2=Nc3ccccc3C(NCc3ccccc3)O2)cc1C (stereo unspecified) as well?
A. 11

Q. Would you mind doing CC(=O)c1ccc(NCN2C(=O)c3ccccc3C2=O)cc1 as well?
A. 55

---

protocol-summary: NCI Yeast Anticancer Drug Screen. Data for the mlh1 rad18 strain (AID 175)
condition-details: S. cerevisiae mlh1 rad18 strain growth inhibition; at 50.0 µM; hits give high values
Compounds without any hit were thinned out: in the full panel of roughly 79,000, 15% have a hit.
Assign Yes to entries whose growth inhibition meets or exceeds 70%; assign No to the rest.

{"columns": ["compound", "category-label"],
 "data": [
  ["CCC(C)C(=O)OCC(=O)c1ccc(-c2ccccc2)cc1 (stereo not drawn)", "No"],
  ["CCCC#CCOC(=O)c1cc([N+](=O)[O-])cc([N+](=O)[O-])c1", "Yes"],
  ["O=c1[nH]c(=O)n(CCCO)cc1F", "No"],
  ["CCOC(=O)C1=C(C)NC(C)=C(C(=O)OCC)C1c1cccc([N+](=O)[O-])c1", "Yes"],
  ["Oc1ccc(Cc2nccc3cc(O)c(O)cc23)cc1O", "No"]
]}

Q. Check if growth inhibition >= 70% (inclusive). Item: O=C1OC(/C=C/c2ccccc2)Sc2ccccc21 (stereo not drawn)
A. No

Q. Would you mind doing C[Si](C)(C)Cc1ccccc1C(=O)O as well?
A. Yes

Q. Would you mind doing CCOC(=O)c1sc2[n+](c1C)C(=O)/C(=C/c1cc(OC)c(OC)c(OC)c1)S2 as well?
A. No

Q. Would you mind doing O=C(CCC(=O)c1ccc(O)cc1)Oc1ccc(O)cc1 as well?
A. No

Q. Would you mind doing Cc1cccc(N2CCN(C(=O)/C(=C/c3ccccc3)NC(=O)c3ccccc3)CC2)c1 as well?
A. No

Q. Would you mind doing Cc1ccc2nc(N/N=C/c3ccc(C)s3)cc(C)c2c1 as well?
A. Yes

Q. Would you mind doing O=C(N/N=C/c1ccc2c(c1)CCC2)c1ccccc1[N+](=O)[O-] as well?
A. Yes

Q. Would you mind doing O=[N+]([O-])C(=C(NCc1ccccc1)NCc1ccccc1)C(Cl)=C(Cl)Cl as well?
A. Yes

Q. Would you mind doing CN(C)N=Nc1ccc(NC=O)cc1 as well?
A. Yes

Q. Would you mind doing Cc1ccc(C(C)C)c(C(=C2C=CC(=[N+](C)C)C=C2)c2c(C(C)C)ccc(C)c2O)c1O as well?
A. Yes

Q. Would you mind doing CC1C=CN(N(C)C)C2=C1C(=O)c1cnccc1C2=O (stereo not drawn) as well?
A. Yes

Q. Would you mind doing COc1ccc(C(=O)OCCc2ccccc2)cc1 as well?
A. No

Q. Would you mind doing O=c1oc(C(C(F)(F)F)C(F)(F)F)nc2ccccc12 as well?
A. No

Q. Would you mind doing Cc1ccnc(NS(=O)(=O)c2ccc(Nc3c4ccccc4nc4ccccc34)cc2)n1 as well?
A. No

Q. Would you mind doing COc1ccc(/C=C2\S/C(=N/Nc3nc(-c4ccccc4)cs3)NC2=O)cc1OC as well?
A. Yes
